# tgt: hIDO1 (Homo sapiens, UniProt P14902)
# Construct: The full ORF of hIDO1 was cloned into the mammalian expression vector pcDNA6/myc-His; myc-His (vector-encoded); host or cells: HEK 293 T
# Sequence (P14902 whole entry): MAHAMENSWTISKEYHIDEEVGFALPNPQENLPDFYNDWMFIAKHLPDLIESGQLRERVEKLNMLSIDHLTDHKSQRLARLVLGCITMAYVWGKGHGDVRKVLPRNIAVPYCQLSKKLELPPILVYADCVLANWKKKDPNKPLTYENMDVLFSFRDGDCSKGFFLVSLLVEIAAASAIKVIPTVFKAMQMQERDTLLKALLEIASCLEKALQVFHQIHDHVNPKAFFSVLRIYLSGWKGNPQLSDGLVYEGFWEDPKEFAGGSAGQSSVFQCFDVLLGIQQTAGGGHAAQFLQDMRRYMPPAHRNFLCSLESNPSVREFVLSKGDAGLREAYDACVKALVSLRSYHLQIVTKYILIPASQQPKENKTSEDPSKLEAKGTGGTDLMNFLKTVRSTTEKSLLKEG
# test name: Cellular hIDO1 inhibition (kynurenine production) in transiently transfected HEK 293 T cells
# Type: cell-based
recorded endpoint: inhibition at 200 µM (%)

Below, each entry is followed by its recorded inhibition at 200 µM result.
| test smiles | inhibition at 200 µM (%) |
| --- | --- |
| O=C(c1cnn[nH]1)c1cccs1 | 62 |
| Clc1ccc(-c2c[nH]nn2)cc1Cl | 65 |
| O=C(c1cnn[nH]1)c1ccco1 | 20 |
| CCC(=O)Nc1ccc(Cl)cc1-c1nc[nH]n1 | 100 |
| O=C(c1cccnc1)c1cnn[nH]1 | 3.9 |

[a] O=C(c1cnn[nH]1)c1cc(Cl)ccc1O
[b] Clc1ccc(-c2c[nH]nn2)c(Cl)c1
Q: // task: argmin of inhibition at 200 µM over [ a , b ] Could you answer with the label of the item you picked?
Result: a
